Source of measurements: paper PMC3344845

# TARGET OR TEST SYSTEM: core-bradavidin (Bradyrhizobium japonicum)
# ASSAY EXPLANATION: ITC; core-bradavidin in the cell, ligand (Brad-tag or Brad-tag–EGFP) in the syringe, 15°C, 50 mM sodium phosphate pH 7.0, 100 mM NaCl; n is the stoichiometry per subunit
RESULT TYPE: pKd
Formally, pKd is defined as -log10 of the concentration c, with c in mol/L.

Record summary for SEKLSNTK [Brad-tag (synthetic peptide SEKLSNTK)] : reported pKd = 4.60
